# Tested on: oxidoreductase according to the invention
# assay-summary: Enantiomeric excess of the alcohol formed from selected substrates (GC)
# Assay type: biochemical, Pichia capsulata
# experimental-context: R-alcohol in excess; 24 h
# Method: For the determination of the ee-value, the following reaction batch was used for selected substrates. The batches for ee-determination were extracted with chloroform after 24 h and the enantiomeric excess of the resulting alcohol was determined via GC.
measured-attribute: Stereoselectivity

O=C(CCl)c1cccc(Cl)c1; 100% R
CCOC(=O)C(=O)c1ccccc1 [Ethyl phenyl glyoxylate]; 100% R
CCOC(=O)CC(=O)CCl [Ethyl-4-chloroacetoacetate]; 99% R
CCOC(=O)CCCCC(=O)CCCl; 100% R

====

The following compounds are shown together with reported Relative activity % values.
# Test system: oxidoreductase according to the invention
# assay-summary: Substrate spectrum (relative enzyme activity with different substrates)
# Format: biochemical, Pichia capsulata
# experimental-context: activity with ethyl-4-chloroacetoacetate = 100%
# Description: Incubation lasted for about 2 to 3 min, thereupon 100 μl of a substrate solution (100 mM ethyl-4-chloro-3-oxobutanoate were added. The substrate spectrum of the oxidoreductase according to the invention was determined by measuring the enzyme activity with a number of ketones, oxoacids and esters thereof. […] The activity with ethyl-4-chloroacetoacetate was equalled to 100% and all the other substrates were set in relation thereto.
measured-attribute: Relative activity % (%)

CC(=O)Cc1ccccc1 [1-Phenyl-2-propanone]; 24
O=C(O)C(=O)Cc1ccccc1 [2-Oxo-3-phenyl propionic acid]; 0
CC(=O)c1ccccc1 [Acetophenone]; 4
CCOC(=O)CCCCC(=O)CCCl [Ethyl-8-chloro-6-oxooctanoic acid]; 20
COC(=O)CC(C)=O [Methyl acetoacetate]; 150
CCC(C)=O [2-Butanone]; 99
CCC(=O)C(=O)O [2-Oxobutanoic acid]; 0
CCOC(=O)C(=O)c1ccccc1 [Ethyl phenyl glyoxylate]; 5.2
CCOC(=O)CC(=O)CC [Ethyl-3 oxovaleriate]; 67
O=C(CCl)c1cccc(Cl)c1 [2-Chloro-1-(3-chlorophenyl)ethane-1-one]; 21
COC(=O)CCCCC(=O)CC(=O)OC [Dimethyl-3-oxo-1,8-octandioic acid]; 3.5
CCOC(=O)CC(C)=O [Ethyl acetoacetate]; 100
CC(=O)CCO [4-Hydroxy-2-butanone]; 99
CCOC(=O)C(=O)CCc1ccccc1 [Ethyl-2-oxo-4-phenylbutanoic acid]; 76
CCCCCC(=O)CC [3-Octanone]; 30
CCCC(=O)C(=O)O [2-Oxovaleric acid]; 0
CCOC(=O)CC(=O)CCl [Ethyl-4-chloroacetoacetate]; 100
CCCCCCCC(=O)c1ccccc1 [Caprylophenone]; 0
CCCCCCC(C)=O [2-Octanone]; 88
CCOC(=O)C(C)=O [Ethyl pyruvate]; 10
CCCC(=O)C(=O)OCC [Ethyl-2-oxovaleriate]; 41

====

# Tested on: oxidoreductase according to the invention
# assay-summary: Enantiomeric excess of the alcohol formed from selected substrates (GC)
# Type: biochemical, Pichia capsulata
# experimental-context: S-alcohol in excess; 24 h
The following compounds are shown together with reported Stereoselectivity values.
measured-attribute: Stereoselectivity (% S)

CC(=O)CCO [4-Hydroxy-2-butanone]; 90
CCC(C)=O [2-Butanone]; 50
CCOC(=O)CC(C)=O [Ethyl acetoacetate]; 99
CCOC(=O)C(=O)CCc1ccccc1 [Ethyl-2-oxo-4-phenylbutanoic acid]; 95
CCOC(=O)C(C)=O [Ethyl pyruvate]; 100
CCCC(=O)C(=O)OCC [Ethyl-2-oxovaleriate]; 97
CCCCCCC(C)=O [2-Octanone]; 100
CC(=O)Cc1ccccc1 [1-Phenyl-2-propanone]; 97
COC(=O)CC(C)=O [Methyl acetoacetate]; 97
